target: CYP3A4 (Homo sapiens); experiment: Inhibition of CYP3A4 in human liver microsomes assessed as reduction in midazolam 1-hydroxylase activity at 10 uM preincubated for 5 mins followed by addition of NADPH-regenerating system and measured after 15 mins by LC-MS/MS analysis relative to control; type: ADME; settings: probe midazolam (1-hydroxylase activity), time 20 min
Sequence (P08684 whole entry): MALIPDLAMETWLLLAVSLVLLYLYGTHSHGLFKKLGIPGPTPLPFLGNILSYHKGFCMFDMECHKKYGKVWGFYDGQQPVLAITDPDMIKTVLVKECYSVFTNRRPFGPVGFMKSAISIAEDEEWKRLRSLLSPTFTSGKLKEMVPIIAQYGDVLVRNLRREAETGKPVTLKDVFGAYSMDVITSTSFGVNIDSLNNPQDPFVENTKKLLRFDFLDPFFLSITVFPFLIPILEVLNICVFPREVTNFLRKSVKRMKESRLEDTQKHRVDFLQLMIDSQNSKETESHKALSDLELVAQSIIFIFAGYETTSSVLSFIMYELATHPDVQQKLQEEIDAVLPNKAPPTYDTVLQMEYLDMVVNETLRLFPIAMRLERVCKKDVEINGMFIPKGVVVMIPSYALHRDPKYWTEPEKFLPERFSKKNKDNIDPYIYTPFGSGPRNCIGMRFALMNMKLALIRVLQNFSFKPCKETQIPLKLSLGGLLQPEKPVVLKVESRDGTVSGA
Classify as follows. Reported inhibition at 0.25 h, 10 µM greater than or equal to 20%: Y. Reported inhibition at 0.25 h, 10 µM below: N.

| compound | classAssignment |
| --- | --- |
| CN1CCC[C@H]1COc1ccc(/C(=C(/CCCO)c2ccccc2)c2ccc(O)cc2)cc1.Cl | Y |
| CN1CCCC1CCOc1ccc(/C(=C(/CCCO)c2ccccc2)c2ccc(Br)cc2)cc1.Cl (stereo unspecified) | N |
| CN(C)CCOc1ccc(/C(=C(/CCCO)c2ccccc2)c2ccc(O)cc2)cc1 | N |
| CN1CCC[C@H]1COc1ccc(/C(=C(/CCCO)c2ccccc2)c2ccc(Br)cc2)cc1.Cl | Y |
| CN1CCCC1CCOc1ccc(/C(=C(/CCCO)c2ccccc2)c2ccc(O)cc2)cc1.Cl (stereo unspecified) | N |
| CN1CCC[C@@H]1COc1ccc(/C(=C(/CCCO)c2ccccc2)c2ccc(O)cc2)cc1.Cl | Y |

----------
# IC50 per entry
Target: Steroid hormone receptor ERR1 (Homo sapiens)
Sequence (P11474 whole entry): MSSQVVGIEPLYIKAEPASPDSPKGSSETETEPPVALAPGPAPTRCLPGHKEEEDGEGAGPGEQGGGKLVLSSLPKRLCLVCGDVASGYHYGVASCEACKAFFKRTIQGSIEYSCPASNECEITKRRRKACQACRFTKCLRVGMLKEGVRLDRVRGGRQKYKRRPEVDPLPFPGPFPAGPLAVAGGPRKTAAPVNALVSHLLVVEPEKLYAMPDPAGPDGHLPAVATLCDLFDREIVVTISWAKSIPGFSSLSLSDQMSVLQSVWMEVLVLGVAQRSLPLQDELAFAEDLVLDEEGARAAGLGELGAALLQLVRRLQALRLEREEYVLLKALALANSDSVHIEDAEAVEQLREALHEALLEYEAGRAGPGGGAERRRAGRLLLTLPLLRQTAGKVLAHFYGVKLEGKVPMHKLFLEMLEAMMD

| compound | IC50 |
| --- | --- |
| C[Si](C)(CN1CCCCC1)c1ccc(/C(=C(/CCCO)c2ccccc2)c2ccc(O)cc2)cc1 | > 10 µM |
| CN1CCC[C@H]1CCOc1ccc(/C(=C(/CCCO)c2ccccc2)c2ccc(O)cc2)cc1 | > 10 µM |
| OCCC/C(=C(\c1ccc(O)cc1)c1ccc(OCCN2C[C@H]3C[C@H]3[C@H]2CO)cc1)c1ccccc1 | > 10 µM |
| CN1CCC[C@H]1COc1ccc(/C(=C(/CCCO)c2ccccc2)c2ccc(O)cc2)cc1.Cl | > 10 µM |
| OCCC/C(=C(\c1ccc(O)cc1)c1ccc(OCCN2CC3CC3C2)cc1)c1ccccc1 (configuration not stated) | > 10 µM |
| CN1CCC[C@@H]1CCOc1ccc(/C(=C(/CCCO)c2ccccc2)c2ccc(O)cc2)cc1 | > 10 µM |
| OCCC/C(=C(\c1ccc(O)cc1)c1ccc2oc(CCN3CCCCC3)cc2c1)c1ccccc1 | > 10 µM |
| OCCC/C(=C(\c1ccc(O)cc1)c1ccc(OCCN2CC2)cc1)c1ccccc1 | > 10 µM |
| CN1CCCC1CCOc1ccc(/C(=C(/CCCO)c2ccccc2)c2ccc(O)cc2)cc1.Cl (configuration not stated) | > 10 µM |
| CN1CCC[C@@H]1COc1ccc(/C(=C(/CCCO)c2ccccc2)c2ccc(O)cc2)cc1.Cl | > 10 µM |
| OCCC/C(=C(\c1ccc(O)cc1)c1ccc(OCCN2CCC[C@@H]2CO)cc1)c1ccccc1 | > 10 µM |
| OCCC/C(=C(\c1ccc(O)cc1)c1ccc(OCCN2CCCC2)cc1)c1ccccc1 | > 10 µM |

Cited source: ChEMBL document CHEMBL4680094
